test system: MRP5; test: Induction of MRP5 expression in human MRP5 vector transfected Colo-357 cells by RT-PCR analysis relative to control; format: cell-based, COLO357; details: Colo-357 cells transfected with human MRP5 vector, read-out: FC

LINE NOTATION	fold induction
O=c1[nH]cc(F)c(=O)[nH]1	4.3

----------
test: Cytotoxicity against human Patu-S cells by crystal violet staining; type: functional, cell-based
pIC50: −log10 of the molar value.

MOLECULE	pIC50
Sc1ncnc2nc[nH]c12 [MERCAPTOPURINE ANHYDROUS]	4.96
Nc1ccn([C@@H]2O[C@H](CO)[C@@H](O)C2(F)F)c(=O)n1 [GEMCITABINE]	8.49
Nc1nc2[nH]cnc2c(=S)[nH]1 [THIOGUANINE]	5.66
O=c1[nH]cc(F)c(=O)[nH]1 [FLUOROURACIL]	5.53

Data origin, for the record: ChEMBL document CHEMBL3525937
